Tested on: SF-268
assay-text: NCI tumour cell line growth inhibition, 48 h
Calls of active or inactive are those of the source. Rule as the data show it: active = GI50 up to about 1.1 µM and inactive = higher.
Outcome codes: active, inactive

> print(dat)
                                   compound  assigned.category
1  O=C(CC(=O)c1ccccc1)c1ccccc1.O=C(CC(=O)c1ccccc1)c1ccccc1.O=C(CC(=O)c1ccccc1)c1ccccc1.[SiH4]           inactive
2         O=c1[nH]c2ccsc2c(=O)n1COCc1ccccc1           inactive
3  Cc1nc(=O)c2cc(CN(C)c3ccc(C(=O)N[C@@H](CCC(=O)O)C(=O)O)s3)ccc2[nH]1           inactive
4  Oc1nc2c(c(-c3cccc(Cl)c3)n1)COC/C2=C\c1cccc(Cl)c1           inactive
5  CCCCCCCCC/C=C1/CC(CO)(COC(=O)CC(C(C)C)C(C)C)OC1=O (stereo not drawn)           inactive
6  O=[N+]([O-])c1cccc2nc3ccccc3c(NCCCNc3c4ccccc4nc4cccc([N+](=O)[O-])c34)c12             active
7  CC1=C(C)CC2(CCCCC2=O)[S+]([O-])C1 (stereo not drawn)           inactive
8  N=C(N)SCc1ccc(Cl)cc1Cl.O=[N+]([O-])c1c(O)c(Cl)cc(Cl)c1Cl           inactive
